Recorded pEC50 by entry
test system: 786-O-Hif-Luc cells; experiment: Luciferase Assay; type: cell-based; details: 24 h, 786-O-Hif-Luc cells; about 24 hours; read-out: Luciferase EC50
In textbook form, pEC50 equals minus log to base ten of the concentration in mol/L.

# compound, measured result
rows = [
    ("N#Cc1c(Oc2cc(F)cc(F)c2)ccc2c1C(O)C(F)(F)S2(=O)=O (stereo not drawn) [Compound 207]", 6.37),
    ("O=S1(=O)c2ccc(OCc3ccccc3)c(C(F)F)c2C(O)C1(F)F (stereo not drawn) [Compound 175]", 6.29),
    ("COc1cc(F)cc(Oc2ccc3c(c2Br)[C@@H](O)C(F)(F)S3(=O)=O)c1 [Compound 190]", 6.38),
    ("CS(=O)(=NC#N)c1ccc(Oc2cc(F)cc(C#N)c2)c2c1[C@H](O)C(F)(F)C2 (single isomer, unassigned) [Compound 20]", 7.55),
    ("N#Cc1cc(F)cc(Oc2ccc(S(=O)(=O)C(F)F)c3c2CC(F)(F)[C@H]3O)c1 [Compound 1]", 8.15),
]

Now consider a different compound.
Request: For the record O=S1(=O)c2ccc(Oc3cncc(F)c3)c(Br)c2[C@@H](O)C1(F)F [Compound 187] , what value of pEC50 is listed for 786-O-Hif-Luc cells?
Response: 6.90

These measurements were taken from patent US10098878B2.
